# Tgt: CD38 (Homo sapiens, UniProt P28907)
# Sequence (P28907 45-300): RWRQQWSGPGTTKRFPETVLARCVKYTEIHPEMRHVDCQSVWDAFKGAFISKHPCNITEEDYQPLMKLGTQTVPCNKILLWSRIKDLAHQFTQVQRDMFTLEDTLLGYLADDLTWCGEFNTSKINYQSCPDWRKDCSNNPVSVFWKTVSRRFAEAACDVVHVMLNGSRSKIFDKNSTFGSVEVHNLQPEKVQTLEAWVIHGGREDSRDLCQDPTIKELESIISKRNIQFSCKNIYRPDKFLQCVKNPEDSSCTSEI
# Procedure Summary: Determination of Ki and kchem by competitive method (NGD+ substrate, absorbance at 295 nm)
# Format: biochemical
# Run Conditions: 100 μM NGD+, 0 to 50 μM inhibitor; read-out: Ki (competitive, initial slopes)
Property Measured: pKi
Give bare numbers, as −log10 of the molar value.

In plain terms, NC(=O)c1ccc[n+]([C@H]2C[C@H](O)[C@@H](CO)O2)c1 [βNdR, β-1′-nicotinamide-2′-deoxyribose] has a documented pKi of 6.00
